- System: NCI-H23 lung
- procedure text: NCI-60 one-dose screen, 48 h
- assay conditions: 10 µM unless noted
The panel holds about 83,000 compounds, 20% with a hit somewhere; the sample as a whole holds those more often. Activity calls are given as the source filed them. How the source made its calls: active means growth percent below 10; inactive means the rest.
Please answer using one outcome listed in active, inactive

COc1cc2oc(-c3ccc(NC(=O)c4ccccc4)cc3)cc(=O)c2c(OC)c1OC = inactive
Nc1nc2cc(O)ccc2n2cc3c(F)cccc3c12 = inactive
CCOc1ccccc1/C=N\N=C(N/N=C/c1ccccc1OCC)N/N=C/c1ccccc1OCC = inactive
COc1cc(C(=O)Nc2ccc(N(C)C)cc2)cc(OC)c1OC = inactive
Cc1cc2c(-c3nc4ccccc4[nH]3)c(O)c(O)cc2c(O)c1-c1c(C)cc2c(-c3nc4ccccc4[nH]3)c(O)c(O)cc2c1O = active
COC1(OC)N=C(N)C2(C#N)C3(C(=O)Nc4ccccc43)C12C#N (stereo not given) = inactive
CCCCCCCCCCCCCCCCCC1=NCCN1CS(=O)(=O)O = inactive
COc1cccc(Cn2cc3c(c2)-c2oncc2CC3)c1 = inactive
C/C(=N\Nc1ccc(Cl)cn1)c1ccc2ccccc2n1 = inactive
Cc1ccc(C(=O)C(Br)C(Br)c2ccccc2)cc1 (stereo not given) = inactive

Q. Record lookup: outcome of this test for CCC(C)[C@H](NC(=O)Nc1cc(C(F)(F)F)cc(C(F)(F)F)c1)C(=O)N[C@@H](Cc1cn(C)cn1)C(=O)OC (stereo not given in full) ?
A. active

Q. Record lookup: outcome of this test for CCCCCCCCC(=O)Nc1ccc(O)cc1 ?
A. inactive

Q. Record lookup: outcome of this test for CCCC(C)c1cc(Cc2cc(Cl)cc(Cl)c2O)c(O)c(Cc2cc(Cl)cc(Cl)c2O)c1 (stereo not given) ?
A. active

Q. Record lookup: outcome of this test for OCCN1CCCN(CCCN2c3ccccc3Sc3ccc(C(F)(F)F)cc32)CC1 ?
A. inactive

Q. Record lookup: outcome of this test for COc1ccc(-c2nc(SCC(C)C)nc(Nc3ccc([N+](=O)[O-])cc3)c2C#N)cc1 ?
A. inactive

Q. Record lookup: outcome of this test for CC1=C[C@@H]2c3c(c(O)c(O)c4oc5cc(O)cc(O)c5c(=O)c34)[C@@H](c3cc(O)c(O)c4oc5cc(O)cc(O)c5c(=O)c34)[C@@H]2C(C)(C)C1 ?
A. active

Q. Record lookup: outcome of this test for Cn1c2c(cc(S(=O)(=O)c3ccccc3)c1=O)CCc1c-2cnn1-c1ccc(Cl)cc1 ?
A. inactive

Q. Record lookup: outcome of this test for Cn1c2ccccc2c2ccccc21 ?
A. inactive

Q. Record lookup: outcome of this test for O=C1Nc2ccccc2/C1=C/c1cn(CC(O)Cn2cc(/C=C3\C(=O)Nc4ccccc43)c3ccccc32)c2ccccc12 (stereo not given) ?
A. active

Q. Record lookup: outcome of this test for COC(=O)c1ccc2[nH]c(O)c(C(=Nc3ccc(N(C)C(=O)CN4CCN(C)CC4)cc3)c3ccc(C)cc3)c2c1 ?
A. active

----------
- Test system: HCC-2998 colon
- procedure text: NCI-60 one-dose screen, 48 h
- assay conditions: 10 µM unless noted
The panel holds about 83,000 compounds, 20% with a hit somewhere; the sample as a whole holds those more often. Active and inactive are the calls of the source. Rule for the calls: active = growth percent below 10; inactive = the rest.
Please answer using one outcome listed in 1 = active, 0 = inactive

Please review the entries below; each comes with its answer.
COC(=O)/C=C/c1cc(O)c2oc(-c3ccc(O)c(O)c3)c(C(=O)OC)c2c1 = 0
Cc1c([C@H](C(Cl)Cl)[C@H](O)[C@H]2C[C@H](C)C(=O)O2)ccc2c1C(=O)[C@H]1[C@H]2C[C@@H](Br)[C@@]23O[C@@H](CO[C@H]2O)CC13C (stereo not given in full) = 1

Q. Record lookup: outcome of this test for O=C(CN1C(=O)NC(c2ccccc2)(c2ccccc2)C1=O)c1ccc(N2CCCC2)cc1 ?
A. 0

Q. Record lookup: outcome of this test for CN1C(=O)C(=Cc2coc3ccc(Br)cc3c2=O)C(=O)N(C)C1=O ?
A. 0

Q. Record lookup: outcome of this test for N#CCc1ncc(-c2ccc(C(F)(F)F)cc2)c(NC2CCCCCC2)n1 ?
A. 0

Q. Record lookup: outcome of this test for Clc1ccc(I)c2ccccc12 ?
A. 0

Q. Record lookup: outcome of this test for CCCCCCCCC1OC1CCCCCCCC(=O)O (stereo not given) ?
A. 0

Q. Record lookup: outcome of this test for NC(N)=Nc1ccc(/C=C2\C=Cc3ccccc32)cc1 ?
A. 0

Q. Record lookup: outcome of this test for CCOC(=O)c1c2c(cn1Cc1ccccc1)-c1oncc1CC2 ?
A. 0

Q. Record lookup: outcome of this test for CCCCCCCCCC(C)NC(=O)CCl (stereo not given) ?
A. 0
